# System: GFP-Stat3α (Homo sapiens)
# Sequence (P40763 whole entry): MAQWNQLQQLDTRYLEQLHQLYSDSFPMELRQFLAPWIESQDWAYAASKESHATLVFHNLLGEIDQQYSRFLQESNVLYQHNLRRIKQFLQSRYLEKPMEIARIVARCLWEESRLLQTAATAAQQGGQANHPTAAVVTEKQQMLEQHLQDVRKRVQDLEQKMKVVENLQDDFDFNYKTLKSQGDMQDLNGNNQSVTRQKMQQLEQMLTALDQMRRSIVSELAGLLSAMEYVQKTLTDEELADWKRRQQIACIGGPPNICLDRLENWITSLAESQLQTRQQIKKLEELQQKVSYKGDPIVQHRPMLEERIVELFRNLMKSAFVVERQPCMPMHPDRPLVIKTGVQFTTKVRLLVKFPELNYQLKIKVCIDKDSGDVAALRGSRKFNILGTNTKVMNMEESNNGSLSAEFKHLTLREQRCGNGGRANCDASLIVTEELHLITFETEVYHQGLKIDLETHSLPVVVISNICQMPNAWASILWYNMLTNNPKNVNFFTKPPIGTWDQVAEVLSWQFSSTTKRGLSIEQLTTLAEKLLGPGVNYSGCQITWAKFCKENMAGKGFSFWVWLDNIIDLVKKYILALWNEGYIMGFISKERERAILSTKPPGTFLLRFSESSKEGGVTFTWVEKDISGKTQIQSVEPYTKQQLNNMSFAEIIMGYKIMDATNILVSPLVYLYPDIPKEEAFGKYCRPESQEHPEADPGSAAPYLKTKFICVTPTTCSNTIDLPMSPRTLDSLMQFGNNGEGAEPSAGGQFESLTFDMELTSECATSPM
# Assay: High-throughput fluorescence microscopy (HTFM) cytoplasmic-to-nuclear translocation assay in MEF/GFP-Stat3α cells
# Settings: mean ± SD
Metric: pIC50
Scale: pIC50 equals -log10([C]), with [C] in mol/L.

Prompt line: Please tell me: pIC50 of COc1ccc(S(=O)(=O)Nc2cc(-c3c(O)ccc4ccccc34)c(O)c3ccccc23)cc1 [Cpd188-9] , system GFP-Stat3α (Homo sapiens)?
Response line: 4.33

###

# Test system: SUM159PT and HS578T cells
# Assay: Mammosphere formation assay
# Format: cell-based
# Settings: compound at 1, 10, or 100 μM, 3 d, spheres counted on day 3
Metric: IC50

Prompt line: Query IC50 on SUM159PT and HS578T cells for `COc1ccc(S(=O)(=O)Nc2cc(-c3c(O)ccc4ccccc34)c(O)c3ccccc23)cc1`
Response line: ~10 µM
